# systemUnderTest: T1, human LIGHT (TNFSF14), full length, membrane-bound (214E allele) (human, UniProt O43557 1-240)
# T1 construct: also called membrane LIGHT; human membrane LIGHT
# T1 sequence (O43557 whole entry K214E): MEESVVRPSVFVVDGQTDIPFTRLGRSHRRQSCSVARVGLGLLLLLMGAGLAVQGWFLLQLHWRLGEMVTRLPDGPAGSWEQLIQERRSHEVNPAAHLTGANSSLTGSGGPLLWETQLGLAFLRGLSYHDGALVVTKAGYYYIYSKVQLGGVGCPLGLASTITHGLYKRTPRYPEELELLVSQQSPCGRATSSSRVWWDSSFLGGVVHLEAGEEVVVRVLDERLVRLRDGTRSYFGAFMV
# assayProcedure: soluble LIGHT 74-240 KD over membrane LIGHT KD
valueKind: Membrane:soluble LIGHT affinity ratio

* 3B04 (antibody, human IgG4, V domains shown, chimeric: mouse variable domains on human IgG4 HC (S-to-P and L-to-E at 248) and human CL; also called Parental 3B04; 3B04 chimeric) VH: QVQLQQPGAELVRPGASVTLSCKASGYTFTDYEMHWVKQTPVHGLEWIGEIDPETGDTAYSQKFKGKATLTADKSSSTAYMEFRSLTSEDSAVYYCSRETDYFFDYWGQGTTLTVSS VL: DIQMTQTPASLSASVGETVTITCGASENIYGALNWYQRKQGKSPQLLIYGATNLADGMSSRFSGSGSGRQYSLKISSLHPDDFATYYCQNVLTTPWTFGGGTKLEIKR | 52.9
* 3D12 (antibody, human IgG4, V domains shown, chimeric: mouse variable domains on human IgG4 HC (S-to-P and L-to-E at 248) and human CL; also called Parental 3D12; 3D12 chimeric) VH: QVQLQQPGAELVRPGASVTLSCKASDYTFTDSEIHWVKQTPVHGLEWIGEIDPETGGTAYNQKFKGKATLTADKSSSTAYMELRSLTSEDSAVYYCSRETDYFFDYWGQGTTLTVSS VL: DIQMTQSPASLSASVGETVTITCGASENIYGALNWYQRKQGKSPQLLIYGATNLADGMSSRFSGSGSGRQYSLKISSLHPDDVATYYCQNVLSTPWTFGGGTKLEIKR | 18.9
* 3A07 (antibody, human IgG4, V domains shown, chimeric human IgG4 (S-to-P, L-to-E at 248), human CL; also called Parental 3A07) VH: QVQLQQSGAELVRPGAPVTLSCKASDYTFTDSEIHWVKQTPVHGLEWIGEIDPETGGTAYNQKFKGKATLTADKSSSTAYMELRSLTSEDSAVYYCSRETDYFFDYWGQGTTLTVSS VL: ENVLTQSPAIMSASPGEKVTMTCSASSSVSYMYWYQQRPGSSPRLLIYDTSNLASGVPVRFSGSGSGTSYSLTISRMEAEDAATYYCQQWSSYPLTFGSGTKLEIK | 105
* 3C10 (antibody, human IgG4, V domains shown, chimeric human IgG4 (S-to-P, L-to-E at 248), human CL; also called Parental 3C10) VH: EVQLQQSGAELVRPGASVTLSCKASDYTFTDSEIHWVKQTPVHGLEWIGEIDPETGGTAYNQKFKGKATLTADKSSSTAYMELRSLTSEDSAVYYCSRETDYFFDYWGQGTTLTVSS VL: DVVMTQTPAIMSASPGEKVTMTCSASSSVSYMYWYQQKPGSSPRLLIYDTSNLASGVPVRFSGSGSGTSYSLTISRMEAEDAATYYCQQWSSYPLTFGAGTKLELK | 61.1
